Test system: corn
method.notes: Test B pre/postemergence corn
Assay type: in vivo, Zea mays
conditions.used: Rate 500 g/ha, Postemergence; 0 to 10 scale (0 no effect, 10 complete control)
property.name: Corn plant response rating
Just the number, please, no unit after it.

Solved entries:
| molecule | system.tested | Corn plant response rating |
| --- | --- | --- |
| CCN(CC)C(=O)n1oc(=O)n(-c2c(C)cccc2C)c1=O [Compound 2] | corn | 6 |
| CC(C)N(C(=O)n1oc(=O)n(-c2ccccc2C(F)(F)F)c1=O)c1ccc(F)cc1 [Compound 15] | corn | 0 |

input: Bench note: what Corn plant response rating did CC(C)N(C(=O)n1oc(=O)n(-c2ccc(Cl)cc2Cl)c1=O)c1ccc(F)cc1 [Compound 7] show?
output: 0

input: Bench note: what Corn plant response rating did Cc1ccc(N(C(=O)n2oc(=O)n(-c3ccccc3C)c2=O)C(C)C)cc1 [Compound 40] show?
output: 0

* * *

Below, each of the compounds is paired with its reported Plant response rating, Blackgrass value.
System: blackgrass
method.notes: Test B pre/postemergence blackgrass
Format: in vivo, Alopecurus myosuroides
conditions.used: Preemergence, Rate 500 g/ha; scale of 0 to 10 where 0 is no effect and 10 is complete control
Just the number, please, no unit after it.

input: Bench note: what Plant response rating, Blackgrass did CC(C)N(C(=O)n1oc(=O)n(CCF)c1=O)c1ccc(F)cc1F [Compound 670] show?
output: 10

input: Bench note: what Plant response rating, Blackgrass did CC(C)N(C(=O)n1oc(=O)n(C[Si](C)(C)C)c1=O)c1ccc(F)cc1 [Compound 294] show?
output: 10

input: Bench note: what Plant response rating, Blackgrass did CC(C)N(C(=O)n1oc(=O)n(CC(Cl)Cl)c1=O)c1ccc(F)cc1F [Compound 673] show?
output: 9

input: Bench note: what Plant response rating, Blackgrass did CC(C)N(C(=O)n1oc(=O)n(CC(C)(C)C)c1=O)c1ccc(F)cc1 [Compound 246] show?
output: 10

input: Bench note: what Plant response rating, Blackgrass did Cc1ccccc1-n1c(=O)on(C(=O)N(c2ccc3c(c2)CCC3)C(C)C)c1=O [Compound 278] show?
output: 0

* * *

System: blackgrass
method.notes: Test B pre/postemergence blackgrass
Assay type: in vivo, Alopecurus myosuroides
conditions.used: Preemergence, Rate 500 g/ha; scale 0 to 10, 0 is no effect, 10 is complete control
Blackgrass plant response rating of 9 or higher: Yes. Under 9: No.

| compound | class |
| --- | --- |
| CC(C)N(C(=O)n1oc(=O)n(CC(=O)N(C)C)c1=O)c1ccc(F)cc1F | Yes |
| CC(C)N(C(=O)n1oc(=O)n(CCS(C)(=O)=O)c1=O)c1ccc(F)cc1 | No |
| C=CC(CC)n1c(=O)on(C(=O)N(c2ccccc2)C(C)C)c1=O (centres unmarked) | No |

Consider now this further compound.
input: Threshold query (Blackgrass plant response rating >= 9) on CC(=O)C(C)n1c(=O)on(C(=O)N(c2ccc(F)cc2)C(C)C)c1=O (centres unmarked)
output: No

* * *

Tested on: purple nutsedge
method.notes: Test B pre/postemergence purple nutsedge
Type: in vivo, Cyperus rotundus
conditions.used: Preemergence, Rate 62 g/ha; scale 0 to 10 (0 no effect, 10 complete control)
Below, each of the molecules is paired with its reported Nutsedge plant response rating value.
Just the number, please, no unit after it.

| smiles.repr | Nutsedge plant response rating |
| --- | --- |
| CC(C)N(C(=O)n1oc(=O)n(CCC(F)=C(F)F)c1=O)c1ccccc1 | 0 |

input: Bench note: what Nutsedge plant response rating did CC(C)N(C(=O)n1oc(=O)n(C)c1=O)c1ccc(F)cc1 show?
output: 2

input: Bench note: what Nutsedge plant response rating did CC(C)N(C(=O)n1oc(=O)n(CC(=O)N(C)C)c1=O)c1ccc(F)cc1 show?
output: 0

input: Bench note: what Nutsedge plant response rating did Cc1cccc(C(C)C)c1-n1c(=O)on(C(=O)N(c2ccc(F)cc2)C(C)C)c1=O show?
output: 0

* * *

Below, each of the molecules is paired with its reported Wheat plant response rating value.
System: wheat
method.notes: Test B pre/postemergence wheat
Assay type: in vivo, Triticum aestivum
conditions.used: Preemergence, Rate 125 g/ha; scale 0 to 10, 0 is no effect, 10 is complete control
Just the number, please, no unit after it.

Solved entries:
| molecule | result.number |
| --- | --- |
| Cc1noc(C)c1Cn1c(=O)on(C(=O)N(c2ccccc2)C(C)C)c1=O [Compound 569] | 0 |
| CC(C)N(C(=O)n1oc(=O)n(CCC2OCCO2)c1=O)c1ccccc1 [Compound 560] | 5 |
| CC(=O)C(C)n1c(=O)on(C(=O)N(c2ccc(F)cc2F)C(C)C)c1=O (stereo not drawn) [Compound 517] | 0 |
| CC(C)N(C(=O)n1oc(=O)n(CCCCF)c1=O)c1ccc(Cl)cc1 [Compound 551] | 0 |
| CC(Cl)=CCn1c(=O)on(C(=O)N(c2ccc(F)cc2F)C(C)C)c1=O [Compound 514] | 0 |

Let us move to another entry and its Wheat plant response rating.
input: Please provide the recorded Wheat plant response rating for CC(C)N(C(=O)n1oc(=O)n(C(C)C(=O)c2ccccc2)c1=O)c1ccccc1 (stereo not drawn) [Compound 570] , tested on wheat.
output: 0

* * *

Tested on: soybean
method.notes: Test B pre/postemergence soybean
Assay type: in vivo, Glycine max
conditions.used: Postemergence, Rate 125 g/ha; scale 0 to 10, 0 is no effect, 10 is complete control
property.name: Plant response rating, Soybean
Just the number, please, no unit after it.

Solved entries:
| compound | result.number |
| --- | --- |
| Cc1cccc(C(C)(C)C)c1-n1c(=O)on(C(=O)N(c2ccc(F)cc2)C(C)C)c1=O [Compound 359] | 2 |
| CC(C)N(C(=O)n1oc(=O)n(C2CCCCCC2)c1=O)c1ccc(F)cc1F [Compound 342] | 5 |
| CCOc1nc(C(F)(F)F)c(Cn2c(=O)on(C(=O)N(c3ccc(F)cc3)C(C)C)c2=O)s1 [Compound 381] | 2 |

input: Bench note: what Plant response rating, Soybean did Cc1ccccc1-n1c(=O)on(C(=O)N(c2ccc(Cl)cc2)C(C)C2CC2)c1=O (stereo not shown) [Compound 330] show?
output: 1

* * *

System: surinam grass
method.notes: Test B pre/postemergence surinam grass
Format: in vivo, Brachiaria decumbens
conditions.used: Postemergence, Rate 250 g/ha; scale of 0 to 10, 0 is no effect, 10 is complete control
Below, each of the molecules is paired with its reported B. signalgrass plant response rating value.
Just the number, please, no unit after it.

Solved entries:
| molecule | system.tested | result.number |
| --- | --- | --- |
| CCC(C)n1c(=O)on(C(=O)N(c2ccccc2)C(C)C)c1=O (stereo not shown) [Compound 612] | surinam grass | 7 |
| C=C(Cn1c(=O)on(C(=O)N(c2ccccc2)C(C)C)c1=O)c1ccc(F)cc1 [Compound 606] | surinam grass | 0 |
| CCOP(=O)(OCC)C(C)n1c(=O)on(C(=O)N(c2ccc(F)cc2)C(C)C)c1=O (stereo not shown) [Compound 617] | surinam grass | 0 |

Let us move to another entry and its B. signalgrass plant response rating.
input: Please provide the recorded B. signalgrass plant response rating for CCCCn1c(=O)on(C(=O)N(c2ccc(F)cc2F)C(C)C)c1=O [Compound 635] , tested on surinam grass.
output: 2

* * *

Below, each of the molecules is paired with its reported Plant response rating, Rape value.
System: rape
method.notes: Test B pre/postemergence rape
Type: in vivo, Brassica napus
conditions.used: Preemergence, Rate 125 g/ha; scale of 0 to 10 where 0 is no effect and 10 is complete control
Just the number, please, no unit after it.

| molecule | system.tested | Plant response rating, Rape |
| --- | --- | --- |
| CC(C)N(C(=O)n1oc(=O)n(CCN(C)C(=O)c2ccccc2)c1=O)c1ccc(F)cc1 | rape | 0 |

input: Bench note: what Plant response rating, Rape did CC(C)N(C(=O)n1oc(=O)n(C(CF)CF)c1=O)c1ccc(Cl)cc1 show?
output: 0

input: Bench note: what Plant response rating, Rape did CC(C)N(C(=O)n1oc(=O)n(C(C)C2=NOCC2)c1=O)c1ccc(F)cc1 (racemic) show?
output: 9

* * *

Below, each of the molecules is paired with its reported Plant response rating, Sugarbeets value.
Test system: sugar beet
method.notes: Test B pre/postemergence sugar beet
Format: in vivo, Beta vulgaris
conditions.used: Preemergence, Rate 250 g/ha; scale of 0 to 10 where 0 is no effect and 10 is complete control
Just the number, please, no unit after it.

Solved entries:
| smiles.repr | Plant response rating, Sugarbeets |
| --- | --- |
| CC(C)N(C(=O)n1oc(=O)n(-c2ccccc2C(F)(F)F)c1=O)c1ccc(F)cc1 | 3 |
| CCCn1c(=O)on(C(=O)N(c2ccccc2)C(C)C)c1=O | 8 |
| Cc1cccc(C(C)C)c1-n1c(=O)on(C(=O)N(c2ccc(F)cc2)C(C)C)c1=O | 0 |
| CC(C)N(C(=O)n1oc(=O)n(-c2ccccc2)c1=O)c1ccc(F)cc1 | 2 |
| CC(C)N(C(=O)n1oc(=O)n(Cc2ccccc2)c1=O)c1ccc(F)cc1F | 1 |
| CC(C)N(C(=O)n1oc(=O)n(Cc2cccs2)c1=O)c1ccc(F)cc1F | 3 |
| CC(C)N(C(=O)n1oc(=O)n(C2CCCCC2)c1=O)c1ccccc1 | 0 |
| CC(C)N(C(=O)n1oc(=O)n(Cc2ccccc2)c1=O)c1ccc(F)cc1 | 5 |

input: Bench note: what Plant response rating, Sugarbeets did CC(C)N(C(=O)n1oc(=O)n(-c2c(Cl)cccc2Cl)c1=O)c1ccc(F)cc1 show?
output: 1

input: Bench note: what Plant response rating, Sugarbeets did CCN(CC)C(=O)n1oc(=O)n(-c2cc(Cl)cc(Cl)c2)c1=O show?
output: 0
